// reported pKi per item
Molecular target: FKBP12 (Homo sapiens, UniProt P62942)
Sequence (P62942 whole entry, species assumed): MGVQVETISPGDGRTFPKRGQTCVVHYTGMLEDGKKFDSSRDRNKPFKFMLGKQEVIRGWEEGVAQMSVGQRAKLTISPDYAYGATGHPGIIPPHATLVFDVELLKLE
pKi: −log10 of the molar value.
endpoint label: pKi

>>> experimental_result("CCC(C)CNC(=O)N1CCC[C@H]1C(=O)OCCCc1cccnc1 (stereo partly shown) [Compound 1]")
7.15
>>> experimental_result("O=C(OCCCc1cccnc1)[C@@H]1CCCN1C(=S)NC12CC3CC(CC(C3)C1)C2 [Compound 5]")
6.94
>>> experimental_result("CCC(C)(C)NC(=O)N1CCC[C@H]1C(=O)OCCCc1cccnc1 [Compound 2]")
6.13
>>> experimental_result("O=C(OCCCc1cccnc1)[C@@H]1CCCN1C(=O)NC1CCCCC1 [Compound 4]")
5.83

###

Listing of entries alongside the reported Clearance.
Test: Clearance (Table E comments)
Format: in vitro ADME
Settings: no method given
endpoint label: Clearance (µL/min)

>>> experimental_result("CCC(C)(C)C(=O)C(=O)N1CCCC[C@H]1C(=O)SCCC(c1ccccc1)c1ccccc1 [Compound K]")
4.5
>>> experimental_result("O=C(OCCCc1cccnc1)[C@@H]1CCCN1C(=S)NC1CCCCC1 [I]")
8.0
>>> experimental_result("CCC(C)(C)C(=O)C(=O)N1CCC[C@H]1C(=O)SCCC(c1ccccc1)c1ccccc1 [M]")
12.5
>>> experimental_result("O=C(SCCCc1ccccc1)[C@@H]1CCCN1S(=O)(=O)Cc1ccccc1 [C]")
31.1
>>> experimental_result("CN(C)C(=O)N1CCC[C@H]1C(=O)SCCCc1ccccc1 [N]")
21.9

###

Assay: Clearance (Table E comments)
Assay type: in vitro ADME
Details: no method given
endpoint label: Clearance (µL/min)

>>> experimental_result("CCC(C)(C)C(=O)C(=O)N1CCC[C@H]1C(=O)O [L]")
5.2
>>> experimental_result("CCC(C)(C)C(=O)C(=O)N1CCC[C@H]1C(=O)CCCCc1cccnc1 [J]")
1.5
>>> experimental_result("CCC(C)(C)C(=O)C(=O)N1CCC[C@H]1C(=O)SCCCc1cccnc1 [GPI 1046]")
63.8
>>> experimental_result("CCC(C)(C)C(=O)C(=O)N1CCCCC1C(=O)OC(CCc1ccccc1)CCc1ccccc1 (stereo not shown) [E]")
41.8

###

Tested on: retinal ganglion cell axons
Test: Protection of retinal ganglion cell axons 14 days after optic nerve transection (Table E)
Format: in vivo
Details: ± SEM
Overview of recorded RT97 + RGC axon density 14 days after ON transection (% ON axons rescued) for various compounds
endpoint label: RT97 + RGC axon density 14 days after ON transection (% ON axons rescued)

>>> experimental_result("CCC(C)(C)C(=O)C(=O)N1CCC[C@H]1C(=O)O [L]")
"7.8% ± 3.0% SEM"
>>> experimental_result("CCC(C)(C)C(=O)C(=O)N1CCC[C@H]1C(=O)SCCC(c1ccccc1)c1ccccc1 [M]")
"−6.3% ± 3.9% SEM"
>>> experimental_result("CCC(C)(C)C(=O)C(=O)N1CCC[C@H]1C(=O)CCCCc1cccnc1 [J]")
"15.8% ± 4.8% SEM"
>>> experimental_result("O=C(SCCCc1ccccc1)[C@@H]1CCCN1C(=O)NC12CC3CC(CC(C3)C1)C2 [B]")
"100.0% ± 5.2% SEM"
>>> experimental_result("CCC(C)(C)C(=O)C(=O)N1CCCC[C@H]1C(N)=O [H]")
"30.3% ± 8.0% SEM"
>>> experimental_result("CCC(C)(C)C(=O)C(=O)N1CCCC[C@H]1C(=O)O [G]")
"34.0% ± 4.8% SEM"
>>> experimental_result("CCC(C)(C)C(=O)C(=O)N1CCC[C@H]1C(=O)SCCCc1cccnc1 [GPI 1046]")
"60.5% ± 3.9 SEM"
>>> experimental_result("O=C(SCCCc1ccccc1)[C@@H]1CCCN1S(=O)(=O)Cc1ccccc1 [C]")
"60.4% ± 3.1% SEM"
>>> experimental_result("O=C(OCCCc1cccnc1)[C@@H]1CCCN1C(=S)NC1CCCCC1 [I]")
"23.8% ± 5.3 SEM"
